- MEASURED TARGET: GDP-bound KRAS protein (aa 1-169) G12C/C118A (Homo sapiens (Human), UniProt P01116, C118A/G12C)
- Sequence (P01116 other isoform, or with tags, fused parts or gaps G12C/C118A): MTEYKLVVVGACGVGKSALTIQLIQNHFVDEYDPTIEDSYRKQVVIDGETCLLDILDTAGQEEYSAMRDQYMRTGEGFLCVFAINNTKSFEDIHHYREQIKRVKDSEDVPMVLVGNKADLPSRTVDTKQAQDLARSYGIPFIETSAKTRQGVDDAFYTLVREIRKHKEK
- ASSAY SUMMARY: Coupled Nucleotide Exchange Assay (KRAS G12C)
- Type: biochemical
- RUN CONDITIONS: 5 min compound pre-incubation; read-out: GDP KRAS G12C 5 min Coupled Exchange IC50 IP
# maps each entry to its pIC50
A value of pIC50 is the negative decimal logarithm of a concentration given in moles per litre.

Solved cases below.
### Prompt // Input: Cc1ccnc(C(C)C)c1-n1c(=O)nc(N[C@@H]2CCN(C(=O)C3CO3)C2)c2cc(Cl)c(-c3ccccc3F)nc21 (some centres unmarked) [Example 32] . Output its pIC50 only.
### Response 4.00

### Prompt // Input: Cc1ccnc(C(C)C)c1-n1c(=O)nc(N2C[C@@H](C)N(C(=O)[C@H]3CO3)C[C@@H]2C)c2cc(Cl)c(-c3c(O)cccc3F)nc21 [Example 36] . Output its pIC50 only.
### Response 6.19

### Prompt // Input: Cc1ccnc(C(C)C)c1-n1c(=O)nc(NC2CN(C(=O)C3CO3)C2)c2cc(Cl)c(-c3ccccc3F)nc21 (centres unmarked) [Example 31] . Output its pIC50 only.
### Response 3.84

---
### Prompt // Input: Cc1ccnc(C(C)C)c1-n1c(=O)nc(N2CC[C@H](NC(=O)C3CO3)C2)c2cc(Cl)c(-c3ccccc3F)nc21 (some centres unmarked) [Example 35] . Output its pIC50 only.
### Response 3.78
